From: ChEMBL document CHEMBL4118269

# protocol.summary: in vitro
# protocol.conditions: human, liver microsomes
Class field: derived from CLhep predicted at 0.75 h, 1 µM; ranges lo: < 7 mL/min/kg; mid: ≥ 7 mL/min/kg and < 8 mL/min/kg; hi: ≥ 8 mL/min/kg

Please review the entries below; each comes with its answer.
query: Sort CS(=O)(=O)c1ccc(-c2nnc(-c3ccc(C(=O)N[C@@H](Cn4ccnc4)c4ccc(Cl)cc4Cl)cc3)o2)cc1Cl into one of the categories.
result: lo

query: Place this compound in its band: O=C(N[C@@H](Cn1ccnc1)c1ccc(Cl)cc1Cl)c1ccc(-c2nnc(-c3ccc(-c4ccccn4)cc3F)o2)cc1
result: hi

query: GET /class?item= O=C(N[C@@H](Cn1ccnc1)c1ccc(Cl)cc1Cl)c1ccc(-c2nnc(-c3ccccc3)o2)cc1
result: lo

query: Which band does O=C(N[C@@H](Cn1ccnc1)c1ccc(Cl)cc1Cl)c1ccc(-c2nnc(-c3cc(F)cc(-c4ncncc4F)c3)o2)cc1 fall in?
result: hi

query: Lab log: O=C(N[C@@H](Cn1ccnc1)c1ccc(Cl)cc1Cl)c1ccc(-c2nnc(-c3ccc(C(F)(F)F)c(F)c3)o2)cc1 — assign CLhep predicted at 0.75 h, 1 µM category
result: lo

Further cases:
query: Class? Entry: O=C(N[C@@H](Cn1ccnc1)c1ccc(Cl)cc1Cl)c1ccc(-c2nnc(-c3ccc(OCC(F)(F)F)cc3F)o2)cc1
result: hi

query: Which CLhep predicted at 0.75 h, 1 µM category applies to O=C(N[C@@H](Cn1ccnc1)c1ccc(Cl)cc1Cl)c1ccc(-c2nnc(-c3cccc(Br)c3)o2)cc1 here?
result: lo

query: Any idea which band O=C(N[C@@H](Cn1ccnc1)c1ccc(Cl)cc1Cl)c1ccc(-c2nnc(-c3ccc(F)c(F)c3)o2)cc1 is in?
result: lo

query: Please classify: O=C(N[C@@H](Cn1ccnc1)c1ccc(Cl)cc1Cl)c1ccc(-c2nnc(-c3ccc(Cl)c(Cl)c3)o2)cc1
result: mid

query: Just checking, what class would you give O=C(N[C@@H](Cn1ccnc1)c1ccc(Cl)cc1Cl)c1ccc(-c2nnc(-c3cc(F)cc(OCC(F)(F)F)c3)o2)cc1 here?
result: mid

query: Could you tell me which band O=C(N[C@@H](Cn1ccnc1)c1ccc(Cl)cc1Cl)c1ccc(-c2nnc(-c3cc(F)cc(-c4ccccn4)c3)o2)cc1 belongs to?
result: hi
